- ASSAY TEXT: yeast display, Sf9 membrane polyspecificity reagent, FACS + sequencing; frameworks hold sequencing errors
READOUT TYPE: polyreactivity (PSR sort gate)

Worked set:
QUERY: Sample QVQLVESGGGLVQAGGSLRLSCAASGRTFGSYAMGWYRQAPGTERELVAAITWSGTGTYYADSVKGRFTISRDKAKNTVYLQMHSLKPEDTAVYYCNTDRWYAYDWGQGTQVTVSS — what was its polyreactivity (PSR sort gate)?
RESULT: high polyreactivity

QUERY: Please report the recorded polyreactivity (PSR sort gate) for QVQLVESGGGLVLAGGSLRLSCAASGRTFGIYAMGWYRQAPGKEREIVAAISWSGTSTHYADSVKGRFTISRDNAKNTVYLQMNSLKPEDTAVYYCAAAKTGRGSGTTGFGYWGQGTQVTVSS .
RESULT: high polyreactivity

QUERY: // polyreactivity (PSR sort gate) lookup, key: QVQLVESGGGLVQAGGSLRLSCAASGLIFRYYAMGWYRQAPGKERELVASISGSGGSTYYADSVKGRFTISRDNAKNTVYLQMNSLKPEDTAVYYCAATLAVYRRGPRYNYWGQGTQVTVSS
RESULT: high polyreactivity

QUERY: Form field: reported polyreactivity (PSR sort gate) of QVQLVESGGGLVQAGGSLRLSCAASGFTFWRNVMGWYRQAPGKERELVAAITRSGGSTYYADSVKGRFTISRDNAKNTVYLQMNSLKPEDTAVYYCNAVRHGGYDYLGQGTQVTVSS
RESULT: high polyreactivity

QUERY: Query (sequence): QVQLVESGGGIVQAGGRLRLSCAASGFPSTLMLWDGIDRRLGKKGSWLPIISYNGGSTYYADSVKGRFTISRDNANNTVYLQMNSLKPVDTAVYYCYTAVGEYESDYWGQGTQVTVSS ; field requested: polyreactivity (PSR sort gate)
RESULT: low polyreactivity

QUERY: // query polyreactivity (PSR sort gate) value for entry QVQLVESGGGIVQAGGSLRLSSAASGRIFPYYAMGWYRQSPGKERELVAAINWRGTRTYADSVKWRFTISRDNAKYTVYFQMTSLNPEDTAVYYCAARTLYFSKYDYWGLGTQVTVSS
RESULT: high polyreactivity

QUERY: Entry QVQLVESGGCLVQAGGSLRLSCAASGSIFIWYAMGWYRQAPGKERELVASITYSAGRTYYADSVKGRFTISRDNAKNTVYLQMNSLKPEDTAVYYCAADSPYVYTLDSYGEGDYWGQGTQVTVSS has what polyreactivity (PSR sort gate)?
RESULT: low polyreactivity

QUERY: Looking for the measured polyreactivity (PSR sort gate) of QDQLVESGGGLVQAGGSLRLSCAASGIIFHFNDMGWYRQAPGKERELVAAITSGGSTNYADSVKGRFTISRDNAKNTLYLQMNSLKPEDTAVYYCAARRGLRLFAYRHGYWGQGTQVTVSS , can you help?
RESULT: low polyreactivity

QUERY: Find the recorded polyreactivity (PSR sort gate) belonging to QVQLVESGGGLVQAGGSLRLSSAASGSIFYNNAMGWYRQAPGKERELVAAISGSGDSTYYADSVKGRFTISRDNAKNTVYLQMNSLIPDDTAVYYCNATPYVLWWSDMDYWGQGTQVTVSS and report it.
RESULT: high polyreactivity

QUERY: Name the recorded polyreactivity (PSR sort gate) for QVQLVESGGGLVQAGGSLRLSCAASGRIFIENAMGWYRQAPGKERELVAAISGSGGRTYYADSVKGRFTISRDNAKNTVYLQMNSLKPEDTAVYYCAAVLRTQPRRYDYWGQGTQVTVSS .
RESULT: high polyreactivity

Now let's try a different one.
QUERY: Request the reported polyreactivity (PSR sort gate) associated with QVQLVESGGGLVQAGGSLRLSCAASGSSFTWYAMGWYRQAPGKERELVAAITRGGSTYADSVKGRFTISRDNAKNTVYLQMNSLKPEDTAVYYCNAVYGVYDFNYWGQGTQVTVSS
RESULT: low polyreactivity
